target: Prostaglandin G/H synthase 2
The reader will find reported pIC50 values listed item by item below.
Field pIC50 (float): negative decimal logarithm of the concentration in molar.

Problem: Name the recorded pIC50 of Cc1ccc(-c2cc(C(F)(F)F)nn2-c2ccc(S(=O)(=O)NC(=O)C(C)c3ccc(CC(C)C)cc3)cc2)cc1 (stereo unspecified) , assay system Prostaglandin G/H synthase 2.
Result: 7.60

***
Problem: Name the recorded pIC50 of `COc1cc(/C=C/C(=O)[N-]S(=O)(=O)c2ccc(-n3nc(C(F)(F)F)cc3-c3ccc(C)cc3)cc2)ccc1[O-].[Na+].[Na+]` , assay system Prostaglandin G/H synthase 2.
Result: 7.64

Problem: Name the recorded pIC50 of Cc1ccc(-c2cc(C(F)(F)F)nn2-c2ccc(S(=O)(=O)NC(=O)CCCCC3CCSS3)cc2)cc1 (stereo unspecified) , assay system Prostaglandin G/H synthase 2.
Result: 6.43

Problem: Name the recorded pIC50 of `COc1cc(C(=O)[N-]S(=O)(=O)c2ccc(-n3nc(C(F)(F)F)cc3-c3ccc(C)cc3)cc2)ccc1[O-].[Na+].[Na+]` , assay system Prostaglandin G/H synthase 2.
Result: 7.96

Problem: Name the recorded pIC50 of `CCOC(=O)NS(=O)(=O)c1ccc(-n2nc(C(F)(F)F)cc2-c2ccc(C)cc2)cc1` , assay system Prostaglandin G/H synthase 2.
Result: 7.46

Problem: Name the recorded pIC50 of `Cc1ccc(-c2cc(C(F)(F)F)nn2-c2ccc(S(=O)(=O)NC(=O)c3ccccc3)cc2)cc1` , assay system Prostaglandin G/H synthase 2.
Result: 7.12
